Target: pY705-STAT3 in PBMC (Homo sapiens, UniProt P40763)
Construct: Cryopreserved Peripheral Blood Mononuclear Cells (PBMC) are from AllCells; host or cells: cryopreserved PBMC
Sequence (P40763 whole entry): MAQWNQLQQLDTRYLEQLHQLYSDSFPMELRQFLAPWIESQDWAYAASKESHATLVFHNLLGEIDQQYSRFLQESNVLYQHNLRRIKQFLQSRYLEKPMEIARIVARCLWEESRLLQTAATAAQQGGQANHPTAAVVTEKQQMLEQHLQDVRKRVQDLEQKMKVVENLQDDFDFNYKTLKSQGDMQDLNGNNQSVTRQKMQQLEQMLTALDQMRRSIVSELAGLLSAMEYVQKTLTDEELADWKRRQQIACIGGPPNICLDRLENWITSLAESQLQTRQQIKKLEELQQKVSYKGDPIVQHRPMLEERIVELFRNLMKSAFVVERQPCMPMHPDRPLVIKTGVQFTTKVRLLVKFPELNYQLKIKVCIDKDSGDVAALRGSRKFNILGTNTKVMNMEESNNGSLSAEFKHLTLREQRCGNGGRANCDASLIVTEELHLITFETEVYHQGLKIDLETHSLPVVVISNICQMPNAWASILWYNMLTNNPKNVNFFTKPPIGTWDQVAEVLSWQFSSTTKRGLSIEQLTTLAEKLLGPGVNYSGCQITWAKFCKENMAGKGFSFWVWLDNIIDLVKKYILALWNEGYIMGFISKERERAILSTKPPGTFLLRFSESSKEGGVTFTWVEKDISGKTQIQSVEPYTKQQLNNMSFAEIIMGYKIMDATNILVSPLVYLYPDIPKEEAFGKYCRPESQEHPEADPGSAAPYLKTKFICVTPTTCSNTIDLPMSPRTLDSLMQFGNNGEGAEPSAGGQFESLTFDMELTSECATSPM
Experiment: MSD-pSTAT-PBMC Assay (pSTAT3, IL-6 stimulated)
Format: cell-based
Settings: PBMC, compound 3 hrs, then 10 ng/mL IL-6 for 10 min; Table 115; read-out: STAT3
Experimental: Cryopreserved Peripheral Blood Mononuclear Cells (PBMC) are from AllCells. Recombinant Human IL-4 and IL-6 are from Peprotech. […] Cyropreserved PBMCs were thawed out and allowed to recover overnight in IMDM+10% heat-inactivated FBS prior to plating 50,000 (STAT3) or 25,000 (STAT6) cells per well in 96-well U-bottom tissue culture plates. […] Assay plates were then washed and 150 μL of 1× Read Buffer-T (MSD) was added to each well prior to reading on an SQ120 MSD Plate Reader. […]
pIC50: −log10 of the molar value.

>  <molecule>
CCCOC(=O)[C@H](C)N[P@@](=O)(Oc1ccccc1)[C@@H](F)c1ccc2sc(C(=O)N[C@H]3CCC[C@H]4CC[C@@H](C(=O)N5CC(c6cnccc6OC)C5)N4C3=O)cc2c1 (single isomer, unassigned) [Compound 1032]

>  <pIC50>
> 7.00

$$$$
>  <molecule>
CCCCOC(=O)[C@@H]1CC(F)(F)CN1P(=O)(Oc1ccccc1)C(F)(F)c1ccc2sc(C(=O)N[C@H]3CCC[C@H]4CC[C@@H](C(=O)N5CC(c6cccnc6)C5)N4C3=O)cc2c1 (stereo partly drawn)

>  <pIC50>
< 5.52

$$$$
>  <molecule>
CCCOC(=O)[C@H](C)NP(=O)(Cc1ccc2sc(C(=O)N[C@H]3CCC[C@H]4CC[C@@H](C(=O)N5CC(c6cnccc6N(C)C)C5)N4C3=O)cc2c1)Oc1ccccc1 (stereo partly drawn)

>  <pIC50>
> 7.00

$$$$

----------
Biological target: Recombinant STAT3 protein (STAT3 (G127-I722)) (Homo sapiens)
Construct: Recombinant STAT3 protein (STAT3 (G127-I722))
Sequence (P40763 127-722): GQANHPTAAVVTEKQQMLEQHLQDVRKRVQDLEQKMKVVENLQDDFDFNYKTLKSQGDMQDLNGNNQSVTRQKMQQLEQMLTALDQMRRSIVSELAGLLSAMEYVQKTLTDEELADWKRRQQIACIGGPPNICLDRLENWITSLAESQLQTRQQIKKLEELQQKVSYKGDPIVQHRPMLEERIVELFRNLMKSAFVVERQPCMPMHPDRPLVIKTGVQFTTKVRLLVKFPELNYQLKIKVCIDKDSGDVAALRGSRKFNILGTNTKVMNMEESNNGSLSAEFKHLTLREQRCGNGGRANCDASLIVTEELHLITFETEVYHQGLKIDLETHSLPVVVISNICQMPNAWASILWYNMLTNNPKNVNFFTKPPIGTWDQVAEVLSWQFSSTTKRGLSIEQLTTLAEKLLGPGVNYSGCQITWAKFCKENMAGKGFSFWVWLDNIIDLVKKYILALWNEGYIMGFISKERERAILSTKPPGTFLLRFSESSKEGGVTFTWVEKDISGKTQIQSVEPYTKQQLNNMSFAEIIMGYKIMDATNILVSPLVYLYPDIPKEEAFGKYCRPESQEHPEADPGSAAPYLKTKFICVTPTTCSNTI
Assay: STAT3 Fluorescence Polarization (FP) Assay
Format: binding
Conditions: STAT3 (G127-I722) 25 nM, probe 5-FAM-GpYLPQTV-NH2 2 nM, 45-minute incubation; read-out: STAT3 (FP assay IC50 class)
Procedure: STAT3 Fluorescence Polarization (FP) Assay An FP assay was developed to determine IC50 values for test substances. […] Reaction components were mixed, and FP was measured after 45-minute incubation at room temperature using a Tecan Spark multimode plate reader. FP signal (mP) was plotted against the log concentration of the test substances and IC50 values were calculated by nonlinear regression analysis using GraphPad Prism software. […]
pIC50: −log10 of the molar value.
Known pIC50 of a selection of molecules

>  <molecule>
O=C(N[C@H]1CCCC[C@H]2CC[C@@H](C(=O)N3CC(Oc4cccnc4)C3)N2C1=O)c1cc2cc(C(F)(F)P(=O)(O)O)ccc2s1

>  <measured.on>
Recombinant STAT3 protein (STAT3 (G127-I722)) (Homo sapiens)

>  <pIC50>
> 7.00

$$$$
>  <molecule>
COCCOC1(c2ccccn2)CN(C(=O)[C@@H]2CC[C@@H]3CCCC[C@H](NC(=O)c4cc5cc(C(F)P(=O)(O)O)ccc5s4)C(=O)N32)C1 (some centres unmarked)

>  <measured.on>
Recombinant STAT3 protein (STAT3 (G127-I722)) (Homo sapiens)

>  <pIC50>
> 7.00

$$$$
>  <molecule>
COC[C@@H]1CCN1c1ncncc1C1CN(C(=O)[C@@H]2CC[C@@H]3CCC[C@H](NC(=O)c4cc5cc([C@@H](F)P(=O)(O)O)ccc5s4)C(=O)N32)C1 (single isomer, unassigned)

>  <measured.on>
Recombinant STAT3 protein (STAT3 (G127-I722)) (Homo sapiens)

>  <pIC50>
> 7.00

$$$$
>  <molecule>
O=C(N[C@H]1CCC[C@H]2CC[C@@H](C(=O)N3CC(c4ccccc4N4CCOCC4)C3)N2C1=O)c1cc2cc(C(F)P(=O)(O)O)ccc2s1 (some centres unmarked)

>  <measured.on>
Recombinant STAT3 protein (STAT3 (G127-I722)) (Homo sapiens)

>  <pIC50>
6.00 to 7.00

$$$$
>  <molecule>
CCC[C@@H]1CC[C@H](NC(=O)c2cc3cc(C(F)P(=O)(O)O)ccc3s2)C(=O)N2[C@H](CC[C@H]2C(=O)N2CC(c3cnccc3OC)C2)C1 (some centres unmarked)

>  <measured.on>
Recombinant STAT3 protein (STAT3 (G127-I722)) (Homo sapiens)

>  <pIC50>
> 7.00

$$$$
>  <molecule>
O=C(N[C@H]1CCC[C@H]2CC[C@@H](C(=O)N3CC(c4cncnc4N4CCOCC4)C3)N2C1=O)c1cc2cc([C@H](F)P(=O)(O)O)ccc2s1 (single isomer, unassigned)

>  <measured.on>
Recombinant STAT3 protein (STAT3 (G127-I722)) (Homo sapiens)

>  <pIC50>
> 7.00

$$$$
>  <molecule>
Cn1ncc(C2CCN(C(=O)[C@@H]3CC[C@@H]4CCCC[C@H](NC(=O)c5cc6cc(C(F)P(=O)(O)O)ccc6s5)C(=O)N43)C2)cc1=O (some centres unmarked)

>  <measured.on>
Recombinant STAT3 protein (STAT3 (G127-I722)) (Homo sapiens)

>  <pIC50>
5.00 to 6.00

$$$$
>  <molecule>
COC(=O)N1C[C@H](NC(=O)[C@@H]2CC[C@@H]3CCCC[C@H](NC(=O)c4cc5cc(C(F)P(=O)(O)O)ccc5s4)C(=O)N32)[C@@H](F)C1 (some centres unmarked)

>  <measured.on>
Recombinant STAT3 protein (STAT3 (G127-I722)) (Homo sapiens)

>  <pIC50>
5.00 to 6.00

$$$$
>  <molecule>
O=C(N[C@H]1CCCC[C@H]2CC[C@@H](C(=O)N[C@H](CO)Cc3cccnc3)N2C1=O)c1cc2cc(C(F)(F)P(=O)(O)O)ccc2s1

>  <measured.on>
Recombinant STAT3 protein (STAT3 (G127-I722)) (Homo sapiens)

>  <pIC50>
6.00 to 7.00

$$$$
>  <molecule>
NC(=O)N1CC(NC(=O)[C@@H]2CC[C@@H]3CCCC[C@H](NC(=O)c4cc5cc(C(F)P(=O)(O)O)ccc5s4)C(=O)N32)C1 (some centres unmarked)

>  <measured.on>
Recombinant STAT3 protein (STAT3 (G127-I722)) (Homo sapiens)

>  <pIC50>
> 7.00

$$$$
>  <molecule>
CO[C@@H]1CCN(c2ccncc2C2CN(C(=O)[C@@H]3CC[C@@H]4CCC[C@H](NC(=O)c5cc6cc(CP(=O)(O)O)ccc6s5)C(=O)N43)C2)C1

>  <measured.on>
Recombinant STAT3 protein (STAT3 (G127-I722)) (Homo sapiens)

>  <pIC50>
> 7.00

$$$$

----------
Known IC50 of a selection of compounds
target: pY705-STAT3 in PBMC (Homo sapiens); construct: Cryopreserved Peripheral Blood Mononuclear Cells (PBMC) are from AllCells; host or cells: cryopreserved PBMC; experiment: MSD-pSTAT-PBMC Assay (pSTAT3, IL-6 stimulated); assay type: cell-based; conditions: PBMC, compound 3 hrs, then 10 ng/mL IL-6 for 10 min; Table 115; read-out: STAT3

>  <compound>
CCCOC(=O)[C@H](C)NP(=O)(Cc1ccc2sc(C(=O)N[C@H]3CCC[C@H]4CC[C@@H](C(=O)N5CC(c6cnccc6N6CCC6)C5)N4C3=O)cc2c1)Oc1ccccc1 (stereo partly shown) [Compound 1031]

>  <measured.on>
pY705-STAT3 in PBMC (Homo sapiens)

>  <IC50>
< 100 nM

$$$$
>  <compound>
CC(C)(C)C(=O)SCCOP(=O)(OCCSC(=O)C(C)(C)C)C(F)(F)c1ccc2sc(C(=O)N[C@H]3CCC[C@H]4CC[C@@H](C(=O)N5CC(CS(C)(=O)=O)C5)N4C3=O)cc2c1 [Compound 1014]

>  <measured.on>
pY705-STAT3 in PBMC (Homo sapiens)

>  <IC50>
< 100 nM

$$$$
>  <compound>
COCC(=O)SCCOP(=O)(OCCSC(=O)COC)C(F)(F)c1ccc2sc(C(=O)N[C@H]3CCC[C@H]4CC[C@@H](C(=O)N5CC(c6cccnc6)C5)N4C3=O)cc2c1 [Compound 1011]

>  <measured.on>
pY705-STAT3 in PBMC (Homo sapiens)

>  <IC50>
< 100 nM

$$$$
>  <compound>
COC[C@H](NP(=O)(Cc1ccc2sc(C(=O)N[C@H]3CCC[C@H]4CC[C@@H](C(=O)N5CC(c6cccnc6)C5)N4C3=O)cc2c1)Oc1ccccc1)C(=O)OCc1ccccc1 (stereo partly shown) [Compound 946]

>  <measured.on>
pY705-STAT3 in PBMC (Homo sapiens)

>  <IC50>
100 to 1000 nM

$$$$
>  <compound>
CCCOC(=O)[C@H](C)NP(=O)(Oc1ccccc1)C(F)(F)c1ccc2sc(C(=O)N[C@H]3CCC[C@H]4CC[C@@H](C(=O)N5CC(c6cccnc6)C5)N4C3=O)cc2c1 (stereo partly shown) [Compound 306]

>  <measured.on>
pY705-STAT3 in PBMC (Homo sapiens)

>  <IC50>
1000 to 3000 nM

$$$$
>  <compound>
CCCOC(=O)[C@H](C)NP(=O)(Oc1ccccc1)[C@@H](F)c1ccc2sc(C(=O)N[C@H]3CCCC[C@H]4CC[C@@H](C(=O)N5C[C@@H](c6ccccc6)[C@H](C#N)C56CC6)N4C3=O)cc2c1 (stereo partly shown) [Compound 380]

>  <measured.on>
pY705-STAT3 in PBMC (Homo sapiens)

>  <IC50>
> 3000 nM

$$$$
>  <compound>
CCCOC(=O)[C@H](C)NP(=O)(Oc1ccccc1)C(F)(F)c1ccc2ccc(C(=O)N[C@H]3CCCC[C@H]4CC[C@@H](C(=O)N5CC(c6ccccc6)CC56CC6)N4C3=O)cc2c1 (stereo partly shown) [Compound 403]

>  <measured.on>
pY705-STAT3 in PBMC (Homo sapiens)

>  <IC50>
> 3000 nM

$$$$

Data provenance: patent US20250215029A1
